Reported pIC50 values are given for each entry in this list.
measuredOn: M1-family alanyl aminopeptidase PfA-M1 [Plasmodium falciparum 3D7]
assayRemarks: PfM1AAP aminopeptidase inhibitors, dose response, biochemical, QFRET, H-Leu-NHMec substrate (AID 588686)
details: recombinant PfM1AAP, H-Leu-NHMec fluorogenic cleavage
Keep it numeric: pIC50 is minus log10 of the concentration in mol/L.

Known pIC50 results, listed for orientation:
O=C(NCc1ccc2c(c1)OCO2)C1CCN(S(=O)(=O)c2ccc(-c3cncc4ccccc34)s2)CC1; 4.94
CC(C)(C)c1ccc(-c2ccc(S(=O)(=O)N3CCC(C(=O)NCc4ccc5c(c4)OCO5)CC3)s2)cc1; 4.30

// next item, pIC50 requested
Specify the recorded pIC50 for CN(C)c1ccc(CNC(=O)C2CCN(S(=O)(=O)c3ccc(Br)s3)CC2)cc1 , system: M1-family alanyl aminopeptidase PfA-M1 [Plasmodium falciparum 3D7].
4.62
